Assign protein stability index to each entry below.
B1: KCNAB2 (parent)
chain: SSIIHEIDSILGNKPYSKKDYRS

Variants of: B1
Assay: protein stability index of a GFP-peptide fusion (GPS, HEK-293T) (PSI 1-6); higher = more stable;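 note: lentivirally expressed fusions sorted by FACS into six bins by GFP to DsRed ratio, PSI derived from sequencing read proportions per bin multiplied by bin number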
Conditions: c terminus: native
// response body must contain only the number

Exercise: Need protein stability index of `PSIIHEIDSILGNKPYSKKDYRS` , thanks.
Solution: 3.28

Exercise: Try `SSIIHEIDTILGNKPYSKKDYRS` next.
Solution: 3.41

Exercise: Queued: `SSIIDEIDSILGNKPYSKKDYRS`
Solution: 3.7

Exercise: Query `SDIIHEIDSILGNKPYSKKDYRS` next
Solution: 3.81

Exercise: Now the same for `SSIIHEIDSILGPKPYSKKDYRS`
Solution: 2.54

Exercise: One more variant: `SSIIHEIDSILGNKPYSKWDYRS`
Solution: 2.8

Exercise: Similarly, `SSIIHEIDSILGTKPYSKKDYRS` ?
Solution: 2.97

Exercise: Can you check `YSIIHEIDSILGNKPYSKKDYRS` next?
Solution: 1.59

Exercise: Again, but for `SCIIHEIDSILGNKPYSKKDYRS`
Solution: 2.22

Exercise: Continue with `SSIIHEIDSILGNKPYSKKSYRS`
Solution: 2.78

Exercise: Then `SSIIHEIDSILGNKAYSKKDYRS` ?
Solution: 3.54

Exercise: Also `SSIIHEIESILGNKPYSKKDYRS` ?
Solution: 2.16

Exercise: Okay, and `SSIIHEIASILGNKPYSKKDYRS` ?
Solution: 2.06

Exercise: Quick one: `SSIIHEIDSILGNKPYSKKTYRS`
Solution: 3.55

Exercise: Thanks! And `SSIIHEIDSILGNKPYSKKPYRS` ?
Solution: 4.21

Exercise: Item: `SSIIHEITSILGNKPYSKKDYRS`
Solution: 2.25

Exercise: Also, `SYIIHEIDSILGNKPYSKKDYRS` please.
Solution: 2.24

Exercise: Proceed to `SSIINEIDSILGNKPYSKKDYRS`
Solution: 3.44

Exercise: Next variant: `SSIIHEIDSILGNKHYSKKDYRS`
Solution: 2.63

Exercise: Now this one: `SSIIHEIDSILGNKVYSKKDYRS`
Solution: 2.71

Exercise: Would you kindly repeat that for `SSIIHEIDSILGNKPYSKKDYIS` ?
Solution: 3.67

Exercise: Same thing, different variant: `SSIIHEIDSILGNKPYSKKDYRY`
Solution: 3.02

Exercise: Input `SSIIHEIDSILGNKPYSSKDYRS`
Solution: 2.69

Exercise: Param item: `SSIIHWIDSILGNKPYSKKDYRS`
Solution: 3.44

Exercise: One more variant: `SSIIHEIDSILGNKPGSKKDYRS`
Solution: 3.59

Exercise: And the next one, `SSIIHEIKSILGNKPYSKKDYRS` ?
Solution: 2.07

Exercise: Another: `SSIIHEIDSWLGNKPYSKKDYRS`
Solution: 1.96

Exercise: // query: `SSIIHEIDSILGNKPYSKKDWRS`
Solution: 3.28

Exercise: Likewise for `SSIDHEIDSILGNKPYSKKDYRS` ?
Solution: 4.28

Exercise: Same lookup for `SSIIHEIDSILGNKPSSKKDYRS` , please.
Solution: 3.02

Exercise: Repeat for the following variant: `SSIIHEIDSILGNKPYSNKDYRS`
Solution: 3.1

Exercise: Moving on to `SSIIHEIDSILGNKPYSAKDYRS`
Solution: 2.33

Exercise: Please give the result for `TSIIHEIDSILGNKPYSKKDYRS` too.
Solution: 2.6

Exercise: Now consider `SSIIHEIDAILGNKPYSKKDYRS` .
Solution: 2.48

Exercise: Thanks! And `SAIIHEIDSILGNKPYSKKDYRS` ?
Solution: 2.89

Exercise: Try the variant `SSIIHEIDSILGNKPYSKHDYRS`
Solution: 3.9

Exercise: Similarly, `SSIIHEIDSILGNKPYSKCDYRS` ?
Solution: 3.2

Exercise: Also, `SSIIHEIDSILGNKPYWKKDYRS` please.
Solution: 2.29

Exercise: How about `SSIIHEIDIILGNKPYSKKDYRS` ?
Solution: 2.08

Exercise: Follow-up entry: `SSIIHEIDSILGNKPYSKMDYRS`
Solution: 3.75

Exercise: Now this one: `SSIIHEIDSILGNKPYSEKDYRS`
Solution: 3.16

Exercise: Please do the same for `SHIIHEIDSILGNKPYSKKDYRS` as well.
Solution: 2.31

Exercise: One more variant: `SSIIHEIDSILGNKPYSTKDYRS`
Solution: 2.56

Exercise: Another variant to look at: `SSIIHEIDSILGNPPYSKKDYRS`
Solution: 3

Exercise: Please give the result for `SSIICEIDSILGNKPYSKKDYRS` too.
Solution: 2.42

Exercise: Now consider `SSIIHEIDSILGNLPYSKKDYRS` .
Solution: 2.77

Source: the supplement of paper PMC10567573
